Where do these numbers come from? They come from patent US20230181482A1.

Assay: LNP particle size by dynamic light scattering (Zetasizer Nano ZS)
Type: physicochemical
Conditions: Table 4; N/P ratio 3:1; DMPE-PEG2000
VALUE TYPE: <d>Z (nm)

The cases that follow already have their <d>Z (nm) on record.
# MOLECULE, VALUE
data = [
    ("CCCCCCCCC(CCCCCCCC)OC(=O)CCCCCCCC(CCCCCCCC(=O)OCC(CCCCCCC)CCCCCCC)NC1CC2(COC2)C1 (stereo not drawn)", 67),
    ("CCCCCCCCC(CCCCCCCC)OC(=O)CCCCCCC(CCCCCCC(=O)OCCC(CCCCCCC)CCCCCCC)NC1CC2(COC2)C1 (stereo not drawn)", 98),
    ("CCCCC/C=C\\C/C=C\\CCCCCCCCC(CCCCCCCC/C=C\\C/C=C\\CCCCC)OC(=O)CCCN(C)C [MC3, reference compound]", 88),
    ("CCCCCC(CCCCC)CCOC(=O)CCCCCC(CCCCCC(=O)OCCC(CCCCC)CCCCC)NC1CCOCC1", 75),
    ("CCCCCCCCC(C)OC(=O)CCCCCCC(CCCCCCC(=O)OC(CCCCCCCC)CCCCCCCC)NC1CC2(COC2)C1 (stereo not drawn)", 69),
]

[a] CCCCCCCC(CCCCCCC)COC(=O)CCCCCCC(CCCCCCC(=O)OCC(CCCCCCC)CCCCCCC)NC1CC2(COC2)C1
[b] CCCCCCCCC(C)OC(=O)CCCCCCC(CCCCCCC(=O)OCC(CCCCCCC)CCCCCCC)NC1CC2(COC2)C1 (stereo not drawn)
# input Of a and b , which shows the smaller <d>Z (nm) value? Refer to your chosen entry by its label in the reply.
# output b

----------
Experiment: LNP particle size by dynamic light scattering (Zetasizer Nano ZS)
Format: physicochemical
Conditions: Table 4; N/P ratio 3:1; DMPE-PEG2000
VALUE TYPE: <d>Z (nm)

# MOLECULE, READING UNIT, VALUE
measured = [
    ("CCCCCC(CCCCC)CCOC(=O)CCCCCCCCC(CCCCCCCCC(=O)OCCC(CCCCC)CCCCC)NCC1CCCCO1 (centres unmarked) [Compound 16]", "nm", 78),
    ("CCCCCCCCC(CCCCCCCC)OC(=O)CCCCCCC(CCCCCCC(=O)OCCCCCCCC(C)C)NC1CC2(COC2)C1 (centres unmarked) [Compound 26]", "nm", 75),
    ("CCCCCCC(CCCCCC)COC(=O)CCCCCCCC(CCCCCCCC(=O)OCC(CCCCCC)CCCCCC)NC1CC2(COC2)C1 [Compound 34]", "nm", 68),
    ("CCCCCC(CCCCC)CCOC(=O)CCCCCCCCC(CCCCCCCCC(=O)OCCC(CCCCC)CCCCC)NCC1COC1 [Compound 18]", "nm", 86),
    ("CCCCCC(CCCCC)CCOC(=O)CCCCCCCCC(CCCCCCCCC(=O)OCCC(CCCCC)CCCCC)NC1CCOCC1 [Compound 15]", "nm", 89),
]
